# target.or.system: human EP2 prostanoid receptors (Homo sapiens, UniProt P43116)
# Construct: expressed in transfected cells; host or cells: HEK-293
# Sequence (P43116 whole entry): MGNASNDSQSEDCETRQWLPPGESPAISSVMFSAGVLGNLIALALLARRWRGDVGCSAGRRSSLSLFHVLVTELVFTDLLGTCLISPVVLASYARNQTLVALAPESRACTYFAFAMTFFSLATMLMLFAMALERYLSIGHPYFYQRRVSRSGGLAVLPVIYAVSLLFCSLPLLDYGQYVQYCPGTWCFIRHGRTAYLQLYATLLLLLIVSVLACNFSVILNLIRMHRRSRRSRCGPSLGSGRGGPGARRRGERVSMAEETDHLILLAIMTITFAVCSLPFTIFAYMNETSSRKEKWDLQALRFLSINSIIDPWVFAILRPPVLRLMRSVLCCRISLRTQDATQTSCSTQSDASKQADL
# method.description: Agonist activity at recombinant human EP2 prostanoid receptors (cAMP in HEK-293 clones)
# Type: cell-based
# condition.label: HEK-293 stably transfected with human EP2; cAMP accumulation; read-out: pEC50 EP2 (converted)
Below is a list of entries, each paired with its recorded EC50 value.

Example entries begin here.
[[record]]
molecule = "O=C(O)Cc1cccc(NC(=O)c2ccc(-c3ccccc3Cl)o2)c1 [Compound 30]"
result = "< 1000 nM"

[[record]]
molecule = "O=C(O)Cc1cccc(NC(=O)c2cc(F)cc(-c3ccccc3)c2)c1 [Compound 52]"
result = "< 100 nM"

[[record]]
molecule = "O=C(Nc1cccc(Cc2nnn[nH]2)c1)c1ccc(-c2ccc(Cl)cc2)o1 [Compound 87]"
result = "< 100 nM"


# input molecule: O=C(O)COc1cccc(NC(=O)c2ccc(-c3ccccc3)o2)c1 [Compound 160] ; wanted: its EC50
< 100 nM

What measured EC50 goes with O=C(O)/C=C/c1cccc(OCc2csc(-c3ccccc3)n2)c1 [Compound 121] ?
< 1000 nM

What value of EC50 has been recorded for this entry: CC(=O)c1ccc(-c2ccc(C(=O)Nc3cccc(CC(=O)O)c3)o2)cc1 [Compound 20]
< 10000 nM

What does the record list as EC50 for O=C(O)Cc1cccc(NC(=O)c2cc(-c3cccc(F)c3)ccc2F)c1 [Compound 111] ?
< 100 nM

Reported EC50, molecule O=C(O)CCc1cccc(NC(=O)c2ccc(-c3ccccc3)o2)c1 [Compound 62] : ____
< 100 nM

Any idea what its EC50 is? The molecule is O=C(O)COc1cccc(NC(=O)c2cccc(-c3cc(Cl)cc(Cl)c3)n2)c1 [Compound 133]
< 100 nM
